Reference source for all entries: BindingDB's records for doi:10.1074/jbc.M113.480210

Biological target: Glutamate receptor ionotropic, NMDA 1 [F484A,T518L]/3B (Rattus norvegicus, UniProt P35439+Q8VHN2, F484A/T518L)
Sequence (Q8VHN2 25-1002 limits assumed, other chains not shown): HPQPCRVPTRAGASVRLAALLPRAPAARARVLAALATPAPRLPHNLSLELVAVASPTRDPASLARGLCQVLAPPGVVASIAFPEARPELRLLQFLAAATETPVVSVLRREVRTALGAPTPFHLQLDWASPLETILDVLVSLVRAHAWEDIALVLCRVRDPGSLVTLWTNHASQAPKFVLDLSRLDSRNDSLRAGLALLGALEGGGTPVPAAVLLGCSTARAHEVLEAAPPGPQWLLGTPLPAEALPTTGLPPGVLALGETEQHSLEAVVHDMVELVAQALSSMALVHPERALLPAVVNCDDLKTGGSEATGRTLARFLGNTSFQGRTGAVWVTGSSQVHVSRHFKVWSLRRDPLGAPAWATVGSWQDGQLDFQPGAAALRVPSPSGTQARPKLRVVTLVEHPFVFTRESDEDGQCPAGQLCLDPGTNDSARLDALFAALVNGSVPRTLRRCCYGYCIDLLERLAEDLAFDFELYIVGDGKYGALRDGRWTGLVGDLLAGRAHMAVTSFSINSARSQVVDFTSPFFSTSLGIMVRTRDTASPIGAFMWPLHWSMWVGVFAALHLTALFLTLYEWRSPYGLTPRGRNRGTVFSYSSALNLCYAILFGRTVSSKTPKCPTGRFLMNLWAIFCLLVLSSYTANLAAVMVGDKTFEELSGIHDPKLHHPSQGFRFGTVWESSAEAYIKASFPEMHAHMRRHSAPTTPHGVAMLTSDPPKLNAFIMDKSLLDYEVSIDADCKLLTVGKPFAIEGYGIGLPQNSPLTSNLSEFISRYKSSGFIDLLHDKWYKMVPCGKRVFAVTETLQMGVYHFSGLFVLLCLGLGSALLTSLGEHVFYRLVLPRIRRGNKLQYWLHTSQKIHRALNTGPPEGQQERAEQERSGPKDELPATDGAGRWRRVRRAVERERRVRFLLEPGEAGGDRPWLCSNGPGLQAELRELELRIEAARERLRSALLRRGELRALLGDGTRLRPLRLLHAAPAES
Assay: Two-electrode Voltage Clamp Electrophysiology
Conditions: pH 7.4; 25 °C
pKi: −log10 of the molar value.
PARAMETER MEASURED: pKi

Recorded pKi for O=C(O)c1cc(O)c2c(Cl)cc(Cl)cc2n1 , please?
< 3.82
